assay: qHTS for differential inhibitors of proliferation of Plasmodium falciparum line D10 (AID 1877); conditions: series mostly up to 28.7 µM;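 also: parasites grown with compound for 72 h before DNA staining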; also: potency is read from the fitted curve at half-maximal effect
Results filed as inconclusive are left out. Activity calls are given as the source filed them. Calls follow the shape of the dose curve; as a rule, active = well fitted curve in the direction sought with a large enough effect; inconclusive = small, poorly fitted or top-dose-only effect, or another doubt; inactive = no such curve, though single readings can be large or run the other way.
measured_quantity: Potency

- molecule: "CCCN1CCc2cc(O)cc3c2C1Cc1ccc(O)c(O)c1-3 (stereo not drawn)"
  test_result: "3980 nM (active)"
- molecule: "CC12CCC3C(CCC4=C(O)C(=O)CCC43C)C1CCC2=O (stereo not drawn)"
  test_result: "inactive"
- molecule: "C[C@@H]1O[C@@H](O[C@H]2C[C@@H](O)[C@]3(CO)[C@H]4[C@H](O)C[C@]5(C)[C@@H]([C@@H]6COC(=O)C6)CC[C@]5(O)[C@@H]4CC[C@]3(O)C2)[C@H](O)[C@H](O)[C@H]1O"
  test_result: "inactive"
- molecule: "NNCc1cccc(O)c1"
  test_result: "14100 nM (active)"
- molecule: "CCCCN1C2CCC1CC(OC(c1ccc(F)cc1)c1ccc(F)cc1)C2 (stereo not drawn)"
  test_result: "2240 nM (active)"
- molecule: "C[C@]12C=CC(=O)C=C1CCC1C2=CC[C@]2(C)[C@@H](C(=O)CN3CCN(c4cc(N5CCCC5)nc(N5CCCC5)n4)CC3)CC[C@@H]12 (stereo partly drawn)"
  test_result: "1580 nM (active)"
- molecule: "N#CC(=Cc1ccc(O)c(O)c1)C(N)=S"
  test_result: "inactive"
- molecule: "NC(Cn1ccc(=O)[nH]c1=O)C(=O)O (stereo not drawn)"
  test_result: "inactive"
- molecule: "CCCN1CCc2cccc3c2C1Cc1ccc(O)c(O)c1-3 (stereo not drawn)"
  test_result: "2510 nM (active)"
- molecule: "CCCN(CCC)[C@@H]1CCc2c(F)ccc(O)c2C1"
  test_result: "2240 nM (active)"
- molecule: "COc1ccc2c3c1O[C@H]1C(=O)CC[C@@]4(O)C(C2)N(CC2CC2)CCC314 (stereo partly drawn)"
  test_result: "inactive"
- molecule: "COC(=O)C(N)CCCN=C(N)N[N+](=O)[O-] (stereo not drawn)"
  test_result: "inactive"
- molecule: "CC1Cc2cc3c(cc2C(c2ccc(N)cc2)=NN1)OCO3 (stereo not drawn)"
  test_result: "inactive"
- molecule: "CCCC[N+]1(C)C2CC(OC(=O)C(CO)c3ccccc3)CC1C1OC12 (stereo not drawn)"
  test_result: "inactive"
- molecule: "CCCN1CCCC(c2cccc(O)c2)C1 (stereo not drawn)"
  test_result: "inactive"
- molecule: "NCC#Cc1ccccc1"
  test_result: "inactive"
- molecule: "Nc1ncnc2c1ncn2[C@@H]1O[C@H](COP(=O)(O)CP(=O)(O)OP(=O)(O)O)[C@H](O)[C@H]1O"
  test_result: "inactive"
- molecule: "CCCN1CCC[C@@H]2Cc3n[nH]cc3C[C@H]21"
  test_result: "inactive"

====

assay: Primary qHTS to identify inhibitors of SARS-CoV-2 cell entry (AID 1645846); conditions: SARS-CoV-2 pseudovirus cell entry assay, luminescence; at 57.1 µM (top of the series) unless noted; also: nearly all actives have a fitted effect of over 45% in size
Inconclusive results are not listed.
measured_quantity: activity change, negative = inhibition (%)

- compound: "CO/N=C(\\C(=O)N[C@@H]1C(=O)N2C(C(=O)O)=C(Cn3ccc(=N)n3CCO)CS[C@H]12)c1csc(N)n1"
  measured_quantity: "activity change, negative = inhibition"
  test_result: -19.1
- compound: "OC[C@H]1OC(O)C[C@@H](O)[C@@H]1O (stereo not given in full)"
  measured_quantity: "activity change, negative = inhibition"
  test_result: -11.1
- compound: "O=C(NOCC(O)CO)c1ccc(F)c(F)c1Nc1ccc(I)cc1F (stereo not given)"
  measured_quantity: "activity change, negative = inhibition"
  test_result: -21.5
- compound: "O=C(O)CC(O)(CC(=O)O)C(=O)O"
  measured_quantity: "activity change, negative = inhibition"
  test_result: -17.5
- compound: "C[C@]12CCC3=C4CCC(=O)C=C4CC[C@H]3[C@@H]1CC[C@@]2(O)CC#N"
  measured_quantity: "activity change, negative = inhibition"
  test_result: -3.65
